Just for reference, patent US20150274719A1 is where these values come from.

- System Under Test: recombinant guanylate cyclase reporter cell line (Rattus norvegicus, UniProt P19686+P20595)
- Construct: expressed in transfected cells; host or cells: recombinant reporter cell line
- Measurement Description: Action on recombinant guanylate cyclase reporter cell line
- Assay type: cell-based
- Test Context: in some cases mean values from individual determinations
Quantity Measured: MEC (minimal effective concentration) (µM)
Answers are plain numbers, in µM.

Give one value of MEC (minimal effective concentration) per listed molecule.
1. Cc1cc(OCc2c(F)cccc2F)c2nc(C)c(C(=O)NCC(C)N3CCOCC3)n2c1 (single isomer, unassigned; ent-8) [Example 187]
2. Cc1nc2c(OCc3c(F)cccc3F)cccn2c1C(=O)NC(C)[C@@H](C)N (single isomer, unassigned) [Example 176]
3. CCCC(C)(N)CNC(=O)c1c(C)nc2c(OCc3c(F)cccc3F)cc(C)cn12 (single isomer, unassigned) [Example 234]
4. Cc1nc2c(OCc3c(F)cccc3F)cccn2c1C(=O)NCC(C)(C)N(C)C
5. Cc1nc2c(OCc3c(F)cccc3F)cccn2c1C(=O)NCC(N)COC(C)C (racemic)
6. Cc1cc(OCc2c(F)cccc2F)c2nc(C)c(C(=O)NCC3(N)CC3)n2c1
7. Cc1nc2c(OCc3c(F)cccc3F)cccn2c1C(=O)NC(C)[C@H](C)N (single isomer, unassigned) [Example 174]
8. Cc1cc(OCc2c(F)cccc2F)c2nc(C)c(C(=O)NCC(C)(N)CCOCc3ccccc3)n2c1 (racemic)

0.30
1.00
0.03
3.00
0.30
0.10
0.30
0.10

Working through the 2 molecules below one at a time, give MEC (minimal effective concentration) for each.
1. Cc1cc(OCc2c(F)cccc2F)c2nc(C)c(C(=O)NC3(C)CCC3(C)N)n2c1 (single isomer, unassigned; enantiomer b) [Example 337]
2. Cc1cc(OCc2c(F)cccc2F)c2nc(C)c(C(=O)NCC(C)(N)CF)n2c1 (single isomer, unassigned; enantiomer b) [Example 284]

[0.55, 0.1]

====

- System Under Test: recombinant guanylate cyclase reporter cell line (Rattus norvegicus, UniProt P19686+P20595)
- Construct: expressed in transfected cells; host or cells: recombinant reporter cell line
- Sequence (P19686 1-690): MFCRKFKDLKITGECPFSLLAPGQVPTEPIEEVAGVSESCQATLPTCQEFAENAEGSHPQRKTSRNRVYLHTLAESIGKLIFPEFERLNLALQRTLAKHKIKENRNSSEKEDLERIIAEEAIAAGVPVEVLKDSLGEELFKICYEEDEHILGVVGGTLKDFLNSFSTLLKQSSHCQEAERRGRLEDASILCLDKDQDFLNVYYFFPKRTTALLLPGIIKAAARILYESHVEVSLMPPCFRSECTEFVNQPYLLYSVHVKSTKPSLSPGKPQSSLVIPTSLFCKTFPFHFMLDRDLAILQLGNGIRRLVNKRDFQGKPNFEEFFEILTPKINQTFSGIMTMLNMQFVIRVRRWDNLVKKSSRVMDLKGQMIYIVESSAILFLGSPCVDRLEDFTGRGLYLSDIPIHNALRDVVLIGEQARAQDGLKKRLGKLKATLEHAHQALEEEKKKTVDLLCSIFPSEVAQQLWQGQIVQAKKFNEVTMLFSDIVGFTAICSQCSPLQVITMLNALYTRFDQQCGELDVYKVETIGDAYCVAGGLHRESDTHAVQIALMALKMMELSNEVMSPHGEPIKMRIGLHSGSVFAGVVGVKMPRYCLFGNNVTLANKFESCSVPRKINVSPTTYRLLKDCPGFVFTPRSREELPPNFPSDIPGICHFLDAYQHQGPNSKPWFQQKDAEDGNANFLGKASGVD
- Sequence (P20595 1-619): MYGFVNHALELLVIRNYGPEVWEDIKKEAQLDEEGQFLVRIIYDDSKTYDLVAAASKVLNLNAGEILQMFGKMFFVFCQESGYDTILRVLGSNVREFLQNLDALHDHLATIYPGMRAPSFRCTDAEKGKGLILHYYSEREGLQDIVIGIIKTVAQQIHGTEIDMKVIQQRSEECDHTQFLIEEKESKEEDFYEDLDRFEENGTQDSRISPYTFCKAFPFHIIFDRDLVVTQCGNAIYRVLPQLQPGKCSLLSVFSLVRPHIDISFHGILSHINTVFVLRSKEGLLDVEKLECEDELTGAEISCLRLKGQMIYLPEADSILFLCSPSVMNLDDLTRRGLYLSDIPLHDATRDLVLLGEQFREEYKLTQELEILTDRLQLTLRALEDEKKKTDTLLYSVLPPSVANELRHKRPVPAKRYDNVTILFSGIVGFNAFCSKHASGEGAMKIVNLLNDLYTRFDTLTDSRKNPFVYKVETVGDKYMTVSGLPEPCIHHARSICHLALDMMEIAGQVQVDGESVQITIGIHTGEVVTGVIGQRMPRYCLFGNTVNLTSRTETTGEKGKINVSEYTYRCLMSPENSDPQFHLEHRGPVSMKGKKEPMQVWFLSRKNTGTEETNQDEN
- Measurement Description: Action on recombinant guanylate cyclase reporter cell line
- Assay type: cell-based
- Test Context: in some cases mean values from individual determinations
Counter-ions that a name gives are not always drawn.
Quantity Measured: MEC (minimal effective concentration) (µM)
Answers are plain numbers, in µM.

Molecule | Quantity Measured | Measured Number
Cc1nc2c(OCc3c(F)cccc3F)cccn2c1C(=O)NC1CCNc2ccc(C(F)(F)F)cc21 (single isomer, unassigned; ent-8) [Example 112] | MEC (minimal effective concentration) | 0.10
CCCC(C)(N)CNC(=O)c1c(C)nc2c(OCc3c(F)cccc3F)cc(Cl)cn12 (single isomer, unassigned; enantiomer b) [Example 246] | MEC (minimal effective concentration) | 0.30
Cc1cc(OCc2c(F)cccc2F)c2nc(C)c(C(=O)NC3CC(C)(C)C3N)n2c1 (mixture of isomers) [Example 358, Formate] | MEC (minimal effective concentration) | 0.30
Cc1cc(OCc2c(F)cccc2F)c2nc(C)c(C(=O)NC3CNCC(F)(F)C3)n2c1 (racemic) [Example 312] | MEC (minimal effective concentration) | 0.30
CCC(C)(N)CNC(=O)c1c(C)nc2c(OCc3c(F)ccc(F)c3F)cc(C)cn12 (single isomer, unassigned; enantiomer b) [Example 275] | MEC (minimal effective concentration) | 0.10

// for each molecule below, give its MEC (minimal effective concentration)
1. NCC(NC(=O)c1c(C2CC2)nc2c(OCc3c(F)cccc3F)cccn12)c1ccc(F)c(F)c1 (stereo not shown) [Example 54]
2. Cc1nc2c(OCc3c(F)cccc3F)cccn2c1C(=O)NC(C)CN (racemic) [Example 17, dihydrochloride]
3. Cc1nc2c(OCc3c(F)cccc3F)cc(Cl)cn2c1C(=O)NC1CNCc2ccccc21 (single isomer, unassigned; ent-6) [Example 108]
4. Cc1cc(OCc2c(F)cccc2F)c2nc(C)c(C(=O)NCC(N)C#N)n2c1 (single isomer, unassigned; enantiomer a) [Example 401]
5. Cc1cc(OCc2c(F)cccc2F)c2nc(C)c(C(=O)NC3(C)CCC3(C)N)n2c1 (racemic) [Example 335]
6. Cc1nc2c(OCc3c(F)cccc3F)cc(Cl)cn2c1C(=O)NC1CNc2ccccc21 (racemic) [Example 49]
7. CCCC(C)(N)CNC(=O)c1c(C)nc2c(OC(C)c3c(F)cccc3F)cc(C)cn12 (stereo not shown) [Example 257]

1.00
1.00
1.00
1.00
0.30
0.30
1.00

Each molecule below has a recorded value; state its MEC (minimal effective concentration).
1. CCC(C)(N)CNC(=O)c1c(C)nc2c(OCc3c(F)cccc3F)cc(C(F)F)cn12 (single isomer, unassigned; enantiomer a) [Example 288]
2. Cc1cc(OCc2c(F)cccc2F)c2nc(C)c(C(=O)NC3CNCC3C(F)(F)F)n2c1 (mixture of isomers) [Example 313]
3. Cc1cc(OCc2c(F)cccc2F)c2nc(C)c(C(=O)NCC(N)c3cnn(C)c3)n2c1 (racemic) [Example 370]
4. CCC(C)(N)CNC(=O)c1c(C)nc2c(OCc3c(F)cccc3F)cc(Cl)cn12 (single isomer, unassigned) [Example 195]
5. Cc1nc2c(OCc3c(F)cccc3F)cc(Cl)cn2c1C(=O)NCC(C)(N)C(F)(F)F (single isomer, unassigned) [Example 238]
6. Cc1cc(OCc2c(F)cccc2F)c2nc(C)c(C(=O)NCC(C)(N)CCO)n2c1 (single isomer, unassigned; enantiomer a) [Example 271]
7. Cc1nc2c(OCc3c(F)cccc3F)cccn2c1C(=O)NCC1(N)CCCC1 [Example 41]

[0.3, 0.30, 3.00, 0.30, 1.00, 0.30, 0.30]
